study target: Phosphatidylinositol 4,5-bisphosphate 3-kinase catalytic subunit alpha isoform (Homo sapiens)
Sequence (P42336 whole entry, canonical isoform): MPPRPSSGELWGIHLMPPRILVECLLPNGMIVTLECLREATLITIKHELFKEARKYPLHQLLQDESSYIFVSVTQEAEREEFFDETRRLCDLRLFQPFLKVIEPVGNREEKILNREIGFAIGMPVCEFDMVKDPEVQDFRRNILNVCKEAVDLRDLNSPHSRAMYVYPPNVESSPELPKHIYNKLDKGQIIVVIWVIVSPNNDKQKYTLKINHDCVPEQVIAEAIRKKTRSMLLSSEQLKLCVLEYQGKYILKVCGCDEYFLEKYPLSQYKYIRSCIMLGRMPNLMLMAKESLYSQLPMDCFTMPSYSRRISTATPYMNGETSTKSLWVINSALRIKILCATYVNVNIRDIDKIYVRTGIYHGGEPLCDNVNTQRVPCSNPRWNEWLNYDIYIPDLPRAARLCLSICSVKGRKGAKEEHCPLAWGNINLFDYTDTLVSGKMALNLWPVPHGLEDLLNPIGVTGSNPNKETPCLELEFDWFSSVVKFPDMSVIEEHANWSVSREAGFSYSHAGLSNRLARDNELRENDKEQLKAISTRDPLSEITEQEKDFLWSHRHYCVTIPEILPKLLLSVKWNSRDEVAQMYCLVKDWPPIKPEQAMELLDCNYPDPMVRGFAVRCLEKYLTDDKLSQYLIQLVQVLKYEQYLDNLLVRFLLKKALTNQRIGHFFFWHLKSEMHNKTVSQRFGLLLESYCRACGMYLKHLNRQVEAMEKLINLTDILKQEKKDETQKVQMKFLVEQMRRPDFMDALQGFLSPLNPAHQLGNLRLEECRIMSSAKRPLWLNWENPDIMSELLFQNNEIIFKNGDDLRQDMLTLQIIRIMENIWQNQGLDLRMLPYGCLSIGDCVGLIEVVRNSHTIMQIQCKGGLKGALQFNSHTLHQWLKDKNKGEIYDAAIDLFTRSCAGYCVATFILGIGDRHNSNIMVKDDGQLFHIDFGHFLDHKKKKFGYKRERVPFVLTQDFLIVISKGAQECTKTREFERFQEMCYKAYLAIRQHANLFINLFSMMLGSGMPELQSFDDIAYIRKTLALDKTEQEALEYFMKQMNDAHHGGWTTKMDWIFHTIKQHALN
experiment summary: Inhibition of PI3Kalpha (unknown origin)
Assign pIC50 to each entry below.
Lab note — pIC50 values are minus log10 of concentrations in M.

(Q) # get_value(readout='pIC50', item= `O=S(=O)(Nc1cc(-c2cnc3[nH]cc(-c4cnn(CCN5CCOCC5)c4)c3c2)cnc1Cl)c1ccccc1` )
(A) 9.52

(Q) Would you mind doing `O=S(=O)(Nc1cc(-c2cnc3[nH]cc(-c4ccc(N5CCOCC5)nc4)c3c2)cnc1Cl)c1ccccc1` as well?
(A) 9.52
